Data credit: PubChem BioAssay

- measured_target: PEG-3 (UniProt Q6IN02)
- Sequence (Q6IN02 whole entry, looked up): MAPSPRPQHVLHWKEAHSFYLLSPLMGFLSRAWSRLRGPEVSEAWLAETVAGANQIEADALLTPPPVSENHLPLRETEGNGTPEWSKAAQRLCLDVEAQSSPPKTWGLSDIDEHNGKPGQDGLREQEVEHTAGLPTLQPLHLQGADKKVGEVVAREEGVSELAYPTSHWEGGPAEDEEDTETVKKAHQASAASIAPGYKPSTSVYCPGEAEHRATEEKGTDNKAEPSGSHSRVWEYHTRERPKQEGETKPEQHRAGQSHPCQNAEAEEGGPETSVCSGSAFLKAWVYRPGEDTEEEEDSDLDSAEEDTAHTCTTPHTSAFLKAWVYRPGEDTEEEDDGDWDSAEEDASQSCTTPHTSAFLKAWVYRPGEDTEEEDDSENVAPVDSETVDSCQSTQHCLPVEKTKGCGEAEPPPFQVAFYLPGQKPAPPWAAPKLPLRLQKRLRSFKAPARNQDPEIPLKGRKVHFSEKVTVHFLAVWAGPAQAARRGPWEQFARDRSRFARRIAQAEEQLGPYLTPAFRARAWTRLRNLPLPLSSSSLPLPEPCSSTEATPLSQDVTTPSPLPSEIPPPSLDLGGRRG
- test_protocol: Peg3 promoter luciferase inhibitors, potency, dose response, cell-based, HeLa, CREF/GAPDH counter-screen panel (AID 624167)
- conditions_used: CREF/GAPDH counter-screens; HeLa PEG-Prom luciferase reporter, overnight, run 1, dose range 1, at 100 µM (top of the series) unless noted
measurement_name: inhibition (%)
The reply should contain only the number, in %.

(Q) I have this compound here, CCCC(=O)NC(c1ccc(C(C)C)cc1)c1ccc2cccnc2c1O (centres undefined) , and I need its recorded inhibition.
(A) 95.6

(Q) Would you kindly share the measured inhibition for `CN(C)S(=O)(=O)c1cccc(NC(=O)CSc2nc3c(cc2C#N)C(=O)CC(C)(C)C3)c1` ?
(A) 63.2

(Q) Any idea what its inhibition is? The compound is `COc1ccc(CN(C)C(=O)c2cc(-c3ccc(C)cc3C)nc3ccccc23)c(OC)c1OC`
(A) 102

(Q) What inhibition value was documented for this compound, `CN1CCN(c2ccc(-c3ccc4ccccc4n3)cc2)CC1` ?
(A) 99.5

(Q) What does the record list as inhibition for `C[C@@H](NCCCn1cnc2c(OCc3ccccc3)ncnc21)c1cccc2ccccc12` ?
(A) 94.9

(Q) What measured inhibition goes with `COC(=O)Cc1[nH]n(-c2nc3ccccc3s2)c(=O)c1C(C)=Nc1ccc(Cl)cc1` ?
(A) 88.1

(Q) What does the data say about its inhibition? Entry: `CC(C)(C)c1ccc(/C=N/Nc2ccc(C(=O)O)cc2)cc1`
(A) 89

(Q) Item under review: `Cc1nn(-c2ccccc2Cl)c(Cl)c1/C=N/Nc1nc2ccccc2s1` . Reported inhibition?
(A) 57.6

(Q) Tell me the measured inhibition of `Cc1ccc(C(=O)Nc2cnc3ccccc3c2)cc1` , please.
(A) 91.5

(Q) Give its inhibition value. Item: `O=C(Nc1ccccc1)c1nc[nH]c1C(=O)NCCCCNC(=O)c1[nH]cnc1C(=O)Nc1ccccc1`
(A) 22.3

(Q) # query: inhibition of entry `COc1cccc2sc(N(CCCN(C)C)C(=O)C(c3ccccc3)c3ccccc3)nc12`
(A) 102

(Q) Query: inhibition; subject: `O=C(N/N=C/c1c(O)ccc2ccccc12)c1ccc(CO)nc1`
(A) 51.6

(Q) Quick one: inhibition for `CN(C)S(=O)(=O)c1ccc(-c2csc(N/N=C/c3ccc(O)cc3)n2)cc1` ?
(A) 99.1

(Q) Any idea what its inhibition is? The compound is CC(C)CC1C(=O)N(Cc2cn(CCC3OCCO3)nn2)CCS(=O)(=O)N1Cc1ccc(-c2ccc(F)cc2)cc1 (centres undefined)
(A) 98.1

(Q) Which inhibition value belongs to Cc1ccc2[nH]c3c(c2c1)CCCC3NC(=O)CCl (centres undefined) ?
(A) 97

(Q) // inhibition lookup, key: `C=CCn1c(C)cc(C(=O)CN2C(=O)c3ccccc3S2(=O)=O)c1C`
(A) 94.5

(Q) So what does the record say about inhibition for `COc1ccc(-c2nc(-c3ccccn3)no2)cc1` ?
(A) 99.7

(Q) What value of measured inhibition is listed for `CCOc1cc(CNCCCN2CCOCC2)ccc1OCC(=O)Nc1cccc2ccccc12` ?
(A) 100

(Q) Name the recorded inhibition for CCCCCCCn1c(=N)n(CC(O)c2ccco2)c2ccccc21 (centres undefined) .
(A) 101

(Q) Query: inhibition; subject: `CC(C)n1nc(C(=O)Oc2cc(Cl)ccc2Cl)c2ccccc2c1=O`
(A) 98.6

(Q) What does the data say about its inhibition? Entry: `Cc1cccc(OCC(=O)NCC(=O)N/N=C/c2cc(Br)cc(Br)c2O)c1`
(A) 75

(Q) Please report the recorded inhibition for `CN1Cc2c(N3CCOCC3)nc3sc(C(=O)c4ccc(Br)cc4)c(N)c3c2CC1(C)C` .
(A) 99

(Q) Given `COc1ccccc1CN(C)C(=O)c1cc(-c2cccs2)nc2ccccc12` , state its recorded inhibition.
(A) 99

(Q) Returns the measured inhibition for the input compound. Input: `O=C1CSC(=S)N1Cc1cccnc1`
(A) 96.9

(Q) What measured inhibition goes with `Cc1ccc2cc3c(N)c4c(C)ccc(C)c4nc3nc2c1` ?
(A) 94.6

(Q) Entry CS(=O)(=O)Nc1cccc(NC(=O)C2Cc3c(-c4ccccc4)ccnc3O2)c1 (centres undefined) : reported inhibition = ?
(A) 58.9

(Q) Using the record for `O=C(/C=C/c1ccccc1)Nc1cccc(C(=O)O)c1` , report its inhibition.
(A) 99

(Q) Param item = `COc1ccc(-c2ccc3[nH]c4c(c3c2)CCN2C[C@@H]([C@H](C)O)[C@@H](N(C)C(=O)Nc3cc(Cl)cc(Cl)c3)C[C@@H]42)cc1` ; retrieve measured inhibition.
(A) 96.3

(Q) I have this compound here, `COc1cccc(C(=O)c2sc(NC(C)C)nc2N)c1` , and I need its recorded inhibition.
(A) 93.5

(Q) Query: inhibition; subject: Oc1ccc(C23CCCC2C2(CCCC2)c2ccc(O)cc2O3)c(O)c1 (centres undefined)
(A) 99.4

(Q) // query inhibition value for entry `COc1ccc(OC)c(Cc2cnc3nc(N)nc(N)c3c2C)c1`
(A) 88.7

(Q) Field request: inhibition | item: CCCCCCCNC(=O)C1(CC2CC(c3cccc(Br)c3)=NO2)CCNCC1 (centres undefined)
(A) 99.6

(Q) Given COc1ccc(C(C(=O)NCC2CCCO2)N(Cc2cccs2)C(=O)c2snc(C(N)=O)c2N)cc1 (centres undefined) , state its recorded inhibition.
(A) 47.8

(Q) What value of measured inhibition is listed for `Fc1ccc(-c2nnc(NC3=NCCCCC3)o2)cc1` ?
(A) 94.9

(Q) # get_value(readout='inhibition', item= CC1(C)Oc2cc3oc(-c4cc(O)cc(O)c4)cc3cc2CC1O (centres undefined) )
(A) 93.6

(Q) Reported inhibition, compound CCCS(=O)(=O)c1cnc(C2COc3ccccc3O2)nc1N (centres undefined) : ____
(A) 96.2

(Q) # input compound: `Oc1ccc(C[C@H]2CNCCN2CCc2cc(C(F)(F)F)cc(C(F)(F)F)c2)cc1` ; wanted: its inhibition
(A) 97.5

(Q) Requested read-out: inhibition. Entry: `COc1ccc(CCN2C(=O)C=CC2=O)cc1OC`
(A) 102

(Q) What does the record list as inhibition for `NC1=C(Br)C(=O)c2ncccc2C1=O` ?
(A) 99.1

(Q) Name the recorded inhibition for `CN(C)c1ccc(/C=C(\C#N)c2ccccn2)cc1` .
(A) 81.8

(Q) Name the reported inhibition value associated with the compound `COc1cc(C=NO)nc(-c2ccccn2)c1`
(A) 71.9

(Q) Name the recorded inhibition for `COc1cccc(-c2nnc3n2N=C(C(C)(C)C)CS3)c1` .
(A) 98.1

(Q) Param item = Cc1cc(NC(c2ccc(Cl)cc2)c2ccc3cccnc3c2O)no1 (centres undefined) ; retrieve measured inhibition.
(A) 37.1

(Q) Quick one: inhibition of CC1CCCN(c2ncnc3c2cnn3-c2ccc(Cl)cc2)C1 (centres undefined) ?
(A) 98.9

* * *

- test_protocol: inhibitors of PAF-induced NFkB signaling in CF airway cells, dose response, cell-based, uHTS hits, panel, cytotoxicity readout (AID 624344)
- conditions_used: CF bronchial epithelial cells, PAF-induced NFkB reporter inhibition, with PAF, run 1; at 79 µM (top of the series) unless noted
measurement_name: inhibition
Field: value (include unit after the number)

(Q) Form field: reported inhibition of `Cc1cc(C)c(C#N)c(SCC(=O)c2ccc(Cl)cc2Cl)n1`
(A) 111%

(Q) Which value of inhibition has been reported for CN(C)c1ccc(C(C(=O)NCc2ccccc2)N(Cc2ccco2)C(=O)c2snc(C(N)=O)c2N)cc1 (stereo not given) in the records?
(A) 109%

(Q) Endpoint output: inhibition of CN(C)c1ccc(C(C(=O)NC2CCCCC2)N(Cc2ccco2)C(=O)c2snc(C(N)=O)c2N)cc1 (stereo not given) . Value?
(A) 105%

(Q) # lookup: inhibition of `COc1ccc2cc3c(N)nn(C(=O)Cc4ccccc4OC)c3nc2c1`
(A) 106%

(Q) So what's the measured inhibition for this one? `O=[N+]([O-])c1cccc(NC(=S)Nc2nc(-c3ccccc3Cl)cs2)c1`
(A) 108%

(Q) Which inhibition reading was recorded for the compound `Cc1ccc(S(=O)(=O)Nc2cccc3ncccc23)s1` ?
(A) 107%

(Q) Any idea what inhibition was measured for `C=CCN(CC=C)c1ncnc2[nH]ncc12` ?
(A) 99.9%

(Q) Quick one: inhibition for CC(=O)Nc1ccc(-c2ccnc3c2CC(C(=O)NCc2ccccc2)O3)cc1 (stereo not given) ?
(A) -53.5%

(Q) Which inhibition value belongs to Cc1ccc(S(=O)(=O)CC(CN2CCCCC2)N2CCCCC2)cc1 (stereo not given) ?
(A) 102%

(Q) I am curious: what inhibition value has been reported for O=C(NC1CCCC(C(F)(F)F)C1)c1ccc([N+](=O)[O-])o1 (stereo not given) ?
(A) 97.5%

* * *

- measured_target: PEG-3 (UniProt Q6IN02)
- test_protocol: Peg3 promoter luciferase inhibitors, potency, dose response, cell-based, HeLa, CREF/GAPDH counter-screen panel (AID 624167)
- conditions_used: CREF/GAPDH counter-screens; HeLa PEG-Prom luciferase reporter, overnight, run 2, dose range 1, at 100 µM (top of the series) unless noted
measurement_name: inhibition (%)
Report only the number, with the unit % understood.

(Q) // inhibition lookup, key: `COc1ccc(-c2cc(C(=O)Nc3ccccc3N3CCOCC3)c3ccccc3n2)cc1OC`
(A) 15

(Q) For `COC(=O)c1ccc(Nc2cc(C)nc3ccc(C)cc23)cc1` , what is its reported inhibition?
(A) 100

(Q) Using the record for CS(=O)(=O)Nc1cccc(NC(=O)C2Cc3c(-c4ccccc4)ccnc3O2)c1 (stereo not given) , report its inhibition.
(A) 75.2

(Q) Please give the measured inhibition for this compound: `Cc1ccc2nc(C)cc(Nc3ccc([N+](=O)[O-])cc3)c2c1`
(A) 101

(Q) Tell me the measured inhibition of CCc1ccc(OCCNc2cc(N3CCNC(C)C3)ccc2[N+](=O)[O-])cc1 (stereo not given) , please.
(A) 101

(Q) Please give the measured inhibition for this compound: `CCN1CCc2c(sc(NC(=O)c3ccc(S(=O)(=O)N4CCCCCC4)cc3)c2C(=O)NC)C1`
(A) 94.9

(Q) Which value of inhibition has been reported for `COc1ccccc1CN(C)C(=O)c1cc(-c2cccs2)nc2ccccc12` in the records?
(A) 98.8

(Q) Query (compound): Cc1ccc(C(C[N+](=O)[O-])Sc2ccc(N)cc2)cc1 (stereo not given) ; field requested: inhibition
(A) 101

(Q) What does the data say about its inhibition? Entry: `CCCc1cc(=O)n2[nH]c(C)c(-c3ccc(Cl)cc3)c2n1`
(A) 88.7

(Q) Reported inhibition, compound `Cc1ccc(/C=C2\SC(=S)N(CCCC(=O)Nc3ccccn3)C2=O)cc1` : ____
(A) 94.2
